Reference source: patent US20240246960A1

assay.explanation: Microsomal stability assay, human liver microsomes
Type: in vitro ADME
condition.description: 60 min
assay.endpoint: Microsomal Stability (human) % rem. 60 min

Q) Which Microsomal Stability (human) % rem. 60 min value is on record for O=C(N[C@H]1CC[C@@H](Oc2nc(N3CCOCC3)cc3ncccc23)CC1)c1cccnn1 [Compound 120] ?
A) F (% remaining = 25-50%)

Q) Which Microsomal Stability (human) % rem. 60 min value is on record for O=C(N[C@H]1CC[C@@H](Oc2nc(N3CCOCC3)cc3ncccc23)CC1)c1cncs1 [Compound 137] ?
A) F (% remaining = 25-50%)

Q) Which Microsomal Stability (human) % rem. 60 min value is on record for O=C(N[C@H]1CC[C@@H](Oc2nc(N3CCOCC3)cc3ncccc23)CC1)c1ccnnc1 [Compound 121] ?
A) G (% remaining = 50-75%)

Q) Which Microsomal Stability (human) % rem. 60 min value is on record for O=C(N[C@H]1CC[C@@H](Oc2nc(N3CCOCC3)cc3ncccc23)CC1)c1cc[nH]c1 [Compound 140] ?
A) F (% remaining = 25-50%)

Q) Which Microsomal Stability (human) % rem. 60 min value is on record for c1cnc(N[C@H]2CC[C@@H](Oc3nc(N4CCOCC4)cc4ncccc34)CC2)nc1 [Compound 20a] ?
A) F (% remaining = 25-50%)

Next up:
Q) Which Microsomal Stability (human) % rem. 60 min value is on record for CS(=O)(=O)Nc1cnc2cc(N3CCOCC3)nc(O[C@H]3CC[C@@H](Nc4ncccn4)CC3)c2c1 [Compound 185] ?
A) F (% remaining = 25-50%)
